These measurements were taken from ChEMBL document CHEMBL6134911.

- Assay method text: Competitive molecular glue activity at fluorescein maleimide-labeled FKBP12 C22V/E108C mutant (unknown origin)/6 His-tagged BRD4 BD2 domain (unknown origin) assessed as ternary complex formation by measuring dissociation constant incubated for 30 mins by fluorescence polarization analysis
- Set-up: species or system Homo sapiens
// reported Kd for each item listed
Write down the numeric answer in µM and omit the unit.

A selection of reference data follows.
| Compound string | Kd, µM |
| --- | --- |
| C=C[C@@H]1CN(Cc2cn(-c3ccc(OC)c(Cl)c3)nn2)C(=O)[C@@H]2CCC[C@H]1N2S(=O)(=O)c1cc(Cl)cc(Cl)c1 | 83 |
| C=C[C@@H]1CN(Cc2cn(-c3ccc(OC)cc3)nn2)C(=O)[C@@H]2CCC[C@H]1N2S(=O)(=O)c1cc(Cl)cc(Cl)c1 | 394 |

Next, consider the following compound.
Note to self: Kd recorded for C=C[C@@H]1CN(Cc2cn(-c3ccc(OC)c(OC)c3)nn2)C(=O)[C@@H]2CCC[C@H]1N2S(=O)(=O)c1cc(Cl)cc(Cl)c1 was 27

* * *

- Assay method text: Competitive molecular glue activity at fluorescein maleimide-labeled FKBP12 C22V/E108C mutant (unknown origin)/6 His-tagged BRD4 BD2 domain (unknown origin) assessed as ternary complex formation by measuring dissociation constant incubated for 30 mins by fluorescence polarization analysis
- Design: species or system Homo sapiens
Measured attribute: pKd
Expect pKd as a plain number equal to -log10 of the molar concentration.

| Compound string | pKd |
| --- | --- |
| C=C[C@@H]1CN(Cc2cn(-c3ccc(C(C)=O)c(OC)c3)nn2)C(=O)[C@@H]2CCC[C@H]1N2S(=O)(=O)c1cc(Cl)cc(Cl)c1 | 4.66 |

Alright, here's another compound for you.
Measured pKd of C=C[C@@H]1CN(Cc2cn(-c3ccc(OC(C)C)cc3)nn2)C(=O)[C@@H]2CCC[C@H]1N2S(=O)(=O)c1cc(Cl)cc(Cl)c1 : 3.84
